Reference source: the supplement of paper PMC8882468

# System: HCI-023 (organoid from a triple-negative breast cancer xenograft)
# Experiment description: CTG-3D luminescence at 96 h relative to day-0 seeding control (ratio to day 0); higher = more growth / less cytotoxicity; PDxO 3D drug screen (set 2), 96 h, CTG-3D normalised to day-0 seeding control.
# Condition notes: 0.005 µM; days in culture: 238
Metric: CTG-3D luminescence at 96 h
Lab note: record just the number, no unit beside it.

Please indicate CTG-3D luminescence at 96 h recorded for CCOc1ccn(-c2ccc(F)cc2)c(=O)c1C(=O)Nc1ccc(Oc2ccnc(N)c2Cl)c(F)c1 [ASLAN002]
1.17

Tell me CTG-3D luminescence at 96 h reported for Cc1c(CN2CCN(C(=O)[C@H](C)O)CC2)sc2c(N3CCOCC3)nc(-c3cnc(N)nc3)nc12 [apitolisib]
1.45

Look up and report measured CTG-3D luminescence at 96 h for this entry: C[C@@H](Nc1cc(F)cc(F)c1)c1cc(C(=O)N(C)C)cc2c(=O)cc(N3CCOCC3)oc12 [AZD-8186]
1.31

Assign CTG-3D luminescence at 96 h to the following record: CC(=O)c1c(C)c2cnc(Nc3ccc(N4CCNCC4)cn3)nc2n(C2CCCC2)c1=O [palbociclib]
1.67

* * *

# System: HCI-024 (organoid from a breast cancer xenograft)
# Experiment description: CTG-3D luminescence at 96 h relative to day-0 seeding control (ratio to day 0); higher = more growth / less cytotoxicity; PDxO 3D drug screen, 96 h, CTG-3D normalised to day-0 seeding control.
# Condition notes: 0.00025 µM; days in culture: 105
Please respond with reported CTG-3D luminescence at 96 h for every item in the list.

Supply measured CTG-3D luminescence at 96 h of C=CC(=O)N1CCC[C@@H](n2nc(-c3ccc(Oc4ccccc4)cc3)c3c(N)ncnc32)C1 [ibrutinib] in your reply.
1.54

Specify reported CTG-3D luminescence at 96 h for the molecule shown: CC(C)(C(=O)NCC(F)(F)C(F)(F)F)C(=O)N[C@@H]1C(=O)Nc2ccccc2-c2ccccc21
1.33

Hello, please tell me recorded CTG-3D luminescence at 96 h for this one: C[C@@H]1COCCN1c1cc(C2([S@](C)(=N)=O)CC2)nc(-c2cc[nH]c3nccc2-3)n1 [ceralasertib]
1.61

Consider the molecule CS(=O)(=O)c1ccc(C(=O)Nc2ccc(Cl)c(-c3ccccn3)c2)c(Cl)c1 [vismodegib] . State its measured CTG-3D luminescence at 96 h.
1.57

* * *

# System: HCI-019 (organoid from a triple-negative breast cancer xenograft)
# Experiment description: CTG-3D luminescence at 96 h relative to day-0 seeding control (ratio to day 0); higher = more growth / less cytotoxicity; PDxO 3D drug screen (set 2), 96 h, CTG-3D normalised to day-0 seeding control.
# Condition notes: 0.00025 µM; days in culture: 173
Metric: CTG-3D luminescence at 96 h
// no unit string in output, number only

Annotate the compound CC(=O)O[C@@]12CO[C@@H]1C[C@H](O)[C@@]1(C)C(=O)[C@H](O)C3=C(C)[C@@H](OC(=O)[C@H](O)[C@@H](NC(=O)OC(C)(C)C)c4ccccc4)C[C@@](O)([C@@H](OC(=O)c4ccccc4)[C@H]21)C3(C)C [docetaxel] with its measured CTG-3D luminescence at 96 h.
0.84

Provide CTG-3D luminescence at 96 h value for the following compound: O=C(c1cc(Cc2n[nH]c(=O)c3ccccc23)ccc1F)N1CCN(C(=O)C2CC2)CC1 [olaparib]
1.9

Write down CTG-3D luminescence at 96 h measured for item CO[C@H]1C[C@@H]2CC[C@@H](C)[C@@](O)(O2)C(=O)C(=O)N2CCCC[C@H]2C(=O)O[C@H]([C@H](C)C[C@@H]2CC[C@@H](O)[C@H](OC)C2)CC(=O)[C@H](C)/C=C(\C)[C@@H](O)[C@@H](OC)C(=O)[C@H](C)C[C@H](C)/C=C/C=C/C=C/1C [rapamycin]
0.905

Report CTG-3D luminescence at 96 h for CCOc1ccn(-c2ccc(F)cc2)c(=O)c1C(=O)Nc1ccc(Oc2ccnc(N)c2Cl)c(F)c1 [ASLAN002]
1.61
